The measurements presented in this section are drawn from ChEMBL document CHEMBL5032517.

# Tested on: A549
# PROCEDURE_DETAILS: Antiproliferative activity against human A549 cells assessed as inhibition of cell growth by secondary round CCK8 assay
# Assay type: functional, cell-based
OBSERVED_PROPERTY: IC50

Form field IC50 for item C/C=C\CC(C/C=C\NC(=O)[C@@H](NC(=O)\C=C/C=C\C(C)=C\[C@H](C)[C@@H]1CC=C(OC)C(=O)O1)C(C)(C)C)OC(N)=O (stereo partly specified) on A549: < 0.2 nM
